Reference source: ChEMBL document CHEMBL1138512

For each record, write down the corresponding pIC50.
target: Aurora kinase A (Homo sapiens); experiment: Inhibition of N-terminal flag-tagged Aurora A expressed in Escherichia coli BL21-DE3 by ELISA
Lab note: report pIC50 as minus log10 of the concentration in molar units, number only.

Memo: Oc1ccc(Nc2ncc(Cl)c(Nc3ccc(O)cc3)n2)cc1 , reported pIC50: 8.10

Memo: O=C(Nc1ccc(O)cc1)c1ccc(Nc2nc(Nc3ccc(O)cc3)ncc2F)cc1 , reported pIC50: 7.89

Memo: Cc1cccc(NC(=O)c2ccc(Nc3nc(Nc4ccc(O)cc4)ncc3F)cc2)c1 , reported pIC50: 7.30

Memo: CC(C)NC(=O)c1ccc(Nc2nc(Nc3ccc(O)cc3)ncc2F)cc1 , reported pIC50: 7.29

Memo: O=C(Nc1cccc(Cl)c1)c1ccc(Nc2nc(Nc3ccc(O)cc3)ncc2F)cc1 , reported pIC50: 6.85

Memo: COc1cccc(Nc2nc(Nc3ccc(O)cc3)ncc2F)c1 , reported pIC50: 6.59

* * *

For each record, write down the corresponding IC50.
Target: Aurora kinase A (Homo sapiens, UniProt O14965)
Sequence (O14965 whole entry): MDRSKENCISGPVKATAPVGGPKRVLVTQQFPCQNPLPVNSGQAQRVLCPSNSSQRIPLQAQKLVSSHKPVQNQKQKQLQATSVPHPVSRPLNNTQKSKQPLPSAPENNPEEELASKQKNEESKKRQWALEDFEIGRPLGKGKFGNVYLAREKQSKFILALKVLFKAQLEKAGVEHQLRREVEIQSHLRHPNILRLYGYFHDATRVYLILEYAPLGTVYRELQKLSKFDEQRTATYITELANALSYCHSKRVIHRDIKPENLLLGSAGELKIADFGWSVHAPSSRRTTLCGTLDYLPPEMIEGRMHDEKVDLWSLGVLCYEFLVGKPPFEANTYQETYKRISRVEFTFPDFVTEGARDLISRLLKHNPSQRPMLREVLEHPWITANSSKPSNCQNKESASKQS
Assay: Inhibition of Aurora A in human HCT116 cells assessed as complete loss of phospho-Aurora A staining in centrosomes by immunofluorescence assay
Format: cell-based, HCT-116
Just the number please, in µM, no unit attached.

Memo: O=C(Nc1ccccc1Cl)c1ccc(Nc2nc(Nc3ccc(O)cc3)ncc2F)cc1 , reported IC50: 5

Memo: CCN1CCN(C(=O)Cc2ccc(Nc3ncc(F)c(Nc4ccc(C(=O)Nc5ccccc5Cl)cc4)n3)cc2)CC1 , reported IC50: 2.5

* * *

biological target: Aurora kinase B (Homo sapiens, UniProt Q96GD4); experiment: Inhibition of Aurora B in human HT29 cells assessed as complete loss of phospho-histone H3 staining by immunofluorescence assay; type: cell-based, HT-29
Sequence (Q96GD4 whole entry): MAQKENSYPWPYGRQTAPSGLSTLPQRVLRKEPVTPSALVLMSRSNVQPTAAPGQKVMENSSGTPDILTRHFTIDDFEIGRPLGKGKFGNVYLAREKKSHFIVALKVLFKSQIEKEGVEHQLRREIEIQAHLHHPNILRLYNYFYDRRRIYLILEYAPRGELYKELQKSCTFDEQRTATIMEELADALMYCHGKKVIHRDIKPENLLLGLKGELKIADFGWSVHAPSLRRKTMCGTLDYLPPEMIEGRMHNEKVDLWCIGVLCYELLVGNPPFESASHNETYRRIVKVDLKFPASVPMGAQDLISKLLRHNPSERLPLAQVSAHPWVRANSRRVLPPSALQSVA
For each record, write down the corresponding IC50.

Memo: O=C(Nc1ccccc1Cl)c1ccc(Nc2nc(Nc3ccc(O)cc3)ncc2F)cc1 , reported IC50: > 30 µM

Memo: O=C(Nc1ccc(Nc2nc(Nc3ccc(O)cc3)ncc2F)cc1)c1ccccc1Cl , reported IC50: > 30 µM

Memo: CCN1CCN(C(=O)Cc2ccc(Nc3ncc(F)c(Nc4ccc(C(=O)Nc5ccccc5Cl)cc4)n3)cc2)CC1 , reported IC50: > 27 µM

Memo: O=C(NC1CC1)c1ccc(Nc2nc(Nc3ccc(O)cc3)ncc2F)cc1 , reported IC50: > 30 µM

Memo: CC(=O)N1CCN(C(=O)Cc2ccc(Nc3ncc(F)c(Nc4ccc(C(=O)Nc5ccccc5Cl)cc4)n3)cc2)CC1 , reported IC50: > 27 µM
